test: Oral bioavailability in dog at 10 mg/kg; format: ADME, organism-based, Canis lupus familiaris; conditions: in vivo
Measurement Name: bioavailability (%)
Reply numerically in %, unit not repeated.

# input Using the record for CC1(C)C(=O)Nc2nc(-n3nc(CCC(F)(F)F)c4cc(Cl)ccc43)nc(N)c21 , report its bioavailability.
# output 21

###

assay: Drug level in SRH rat plasma at 3 mg/kg , po measured after 4 hrs; assay type: ADME, organism-based
Measurement Name: concentration at 4 h (nM)
Reply numerically in nM, unit not repeated.

# input Using the record for CC1(C)C(=O)Nc2nc(-n3nc(CCC(F)(F)F)c4cc(Cl)ccc43)nc(N)c21 , report its concentration at 4 h.
# output 392

###

experiment: Clearance in dog at 1 mg/kg, iv and 10 mg/kg, po; assay type: ADME, organism-based, Canis lupus familiaris; details: in vivo
Measurement Name: clearance (L/h/kg)
Reply numerically in L/h/kg, unit not repeated.

# input Using the record for CC1(C)C(=O)Nc2nc(-n3nc(CCC(F)(F)F)c4cc(Cl)ccc43)nc(N)c21 , report its clearance.
# output 2.34
